Biological target: BRD4 (Homo sapiens, UniProt O60885)
Assay: BRD4 IC50 (second BRD4 value listed in Table 2)
Format: binding
Details: second BRD4 IC50 listed per compound
pIC50: −log10 of the molar value.
EXPERIMENTAL_ENDPOINT: pIC50

Below are worked cases with known answers.
{"GIVEN_SMILES": "COc1cc(C(=O)N2CCC(N3CCN(C)CC3)CC2)ccc1N(C)c1ncc2c(n1)N(C)c1ccccc1C(=O)N2C", "EXPERIMENTAL_ENDPOINT": "pIC50", "READOUT_VALUE": 5.59}
{"GIVEN_SMILES": "CN1C(=O)c2ccccc2N(C)c2nc(Nc3ccc(S(N)(=O)=O)cc3)ncc21", "EXPERIMENTAL_ENDPOINT": "pIC50", "READOUT_VALUE": 5.74}

[P] CN1C(=O)c2ccccc2N(C)c2nc(Nc3ccc(C(=O)O)cc3OC3CCCC3)ncc21
[Q] CCN(c1ncc2c(n1)N(C)c1ccccc1C(=O)N2C)c1ccc(C(=O)N2CCC(N3CCN(C)CC3)CC2)cc1OC
In: Return label of the item with the larger pIC50. Candidates: P , Q . When you have decided, please share the label of that item.
Out: P
(P: 5.82, Q: 5.24)

###

Target: BRD4 (Homo sapiens, UniProt O60885)
EXPERIMENTAL_ENDPOINT: Kd (nM)
Kindly provide the numeric value in nM only, without the unit symbol.

Value of Kd reported for the compound CN1C(=O)c2ccccc2N(C)c2nc(Nc3ccc(S(N)(=O)=O)cc3)ncc21 [Compound 2-075] is 180

###

Molecular target: BRD4.1 (Homo sapiens)
Construct: final concentrations of BRD4.1 at 80 nM; His tag (inferred from the Ni-coated acceptor bead)
Experiment: Acetyl-histone binding assay (AlphaScreen), percent inhibition of BRD4.1
Settings: BRD4.1, 2.5 μM compound concentration, in vitro; read-out: % INHIB (at 2.5 uM)
EXPERIMENTAL_ENDPOINT: inhibition at 2.5 µM (%)

{"MOLECULE": "COc1cc(N2CCN(C)CC2)ccc1Nc1ncc2c(n1)N(C)c1ccccc1C(=O)N2C", "EXPERIMENTAL_ENDPOINT": "inhibition at 2.5 µM", "READOUT_VALUE": 36.1}
{"MOLECULE": "CN1C(=O)c2ccccc2N(C)c2nc(Nc3ccc(N4CCC(O)CC4)cc3)ncc21", "EXPERIMENTAL_ENDPOINT": "inhibition at 2.5 µM", "READOUT_VALUE": 50.8}

[I] COc1cc(C(=O)N2CCC(N3CCN(C)CC3)CC2)ccc1Nc1ncc2c(n1)N(C)c1ccccc1C(=O)N2C [drawing 33]
[II] CCN1CCN(Cc2ccc(Nc3ncc4c(n3)N(C)c3ccccc3C(=O)N4C)cc2C(F)(F)F)CC1
[III] CCOc1cc(N2CCC(O)CC2)ccc1Nc1ncc2c(n1)N(C)c1ccccc1C(=O)N2C
In: Could you please order the items by inhibition at 2.5 µM, going from the lowest number to the highest? The labels, placed in the requested order, form the answer.
Out: I, III, II
(I: 20.5%, III: 29.5%, II: 45.8%)

###

Target: UniProt Q58F21
Assay: BRDT IC50
Assay type: binding
pIC50: −log10 of the molar value.
EXPERIMENTAL_ENDPOINT: pIC50

{"GIVEN_SMILES": "CN1C(=O)c2ccccc2N(C)c2nc(Nc3ccc(S(N)(=O)=O)cc3)ncc21", "pIC50": 5.54}

[A] CCN(c1ncc2c(n1)N(C)c1ccccc1C(=O)N2C)c1ccc(C(=O)N2CCC(N3CCN(C)CC3)CC2)cc1OC
[B] COc1cc(C(=O)N2CCC(N3CCN(C)CC3)CC2)ccc1N(C)c1ncc2c(n1)N(C)c1ccccc1C(=O)N2C
In: Given A and B , report the one with the higher recorded pIC50. To answer, give the label that identifies your chosen option.
Out: B
(B: 5.26, A: 5.02)
